- experimental-system: HLA-B*35:01
- assay-comment: IEDB peptide-MHC binding, purified MHC/competitive/radioactivity; bounds were set here for any values at or beyond the usual limits of such assays
- run-conditions: source organism: Human papillomavirus 16
measure-name: pIC50
// pIC50 here means minus log10 of the molar concentration (mol/L)

**Q:** Check HLA-B*35:01 data and give pIC50 for `SAFRCFIVY` .
**A:** 8.85

###

- experimental-system: HLA-A*02:12
- assay-comment: IEDB peptide-MHC binding, purified MHC/direct/fluorescence; filed as Kd, often an IC50 or EC50 that approximates it; bounds were set here for any values at or beyond the usual limits of such assays
- run-conditions: source organism: Encephalitozoon cuniculi GB-M1
measure-name: Kd

**Q:** Check HLA-A*02:12 data and give Kd for `RNMSRIFPY` .
**A:** ≥ 20 µM
